Target: T1, cynomolgus monkey EL (cynomolgus monkey)
T1 construct: Heparin extract; also called cynomolgus EL; Cynomolgus EL
Assay: ELISA: antibody captured on anti-mouse IgG-Fc plate, EL heparin extract added, detection with biotin anti-C2-tag antibody and HRP-streptavidin, A450
Listed here: items and their measured EC50 (read off the curve).

Recorded results for 3 binders are shown here.
Q: Return the recorded EC50 (read off the curve) value; entry: 53A11 (antibody, mouse IgG2a, V domains shown, mouse IgG2a from hybridoma; also called 53A11 (mouse mAb)) VH: EVQLQQSGPELLKPGASVKISCKASGYTFTDYTMHWVKQSHGKSLEWIGGINPYYGGTTYNEKFKDKATLTVDKSSSTAYMELRSLTSEDSAVYYCAKGDYYGGSYNYWGQGTTLTVSS VL: DIVLTQSLATLSVTPGDSVSLSCRASQDISNSLHWYQQKSHESPRLLIKYASQSISGIPSRFSGSGSGTDFTLSINSVETEDFGMYFCQQSNSWPYTFGGGTKLEIK
Result: ~10 ng/mL

Q: Return the recorded EC50 (read off the curve) value; entry: 7D4 (antibody, mouse IgG1, V domains shown, mouse IgG1 from hybridoma) VH: QIQLVQSGPELKKPGETVKISCKASGYTFTNYGMNWVKQAPGKDLKWMGWINTYSGVPTYADDFKGRFAFSLETSASTAYLQINNLKNEDTATYFCARFSYYGRHYFDYWGQGTTLTVSS VL: DIVLTQSPASLAVSLGQRATISCKASQSVDYDGDSYMNWYQQKPGQPPQLLIYAASNLGSGIPARFSGSGSGTDFTLNIHPVEEEDAATYYCHQSTDDPPWTFGGGTKLEIK
Result: ~10 ng/mL

Q: Return the recorded EC50 (read off the curve) value; entry: 55A1 (antibody, mouse IgG2a, V domains shown, mouse IgG2a from hybridoma; also called 55A1 (mouse mAb)) VH: QIHLVQSGPELKKPGETVKISCKASGYTFTNYGMNWVKQAPGKGLKWMGWINTYSGVPTYAGDFKGRFAFSLETSASTAYLQINNLKNEDTATYFCARRGYYGRRYFDVWGTGTTVTVSS VL: DIVLTQSPASLAVSLGQRATISCKASQSVDYDVDSYMHWYQQKPGQPPKLLIYAASNLASGIPARFSGGGSGTDFTLNIHPVEEEDVATYYCQQTIEDPPTFGGGTKLEIK
Result: ~5 ng/mL

From here, focus on the item given below.
Q: Return the recorded EC50 (read off the curve) value; entry: 16E7 (antibody, mouse IgG1, V domains shown, mouse IgG1 from hybridoma) VH: EVKLVESGGGLVQPGGSLKLSCAASGFTFSSYTMSWVRQTPEKRLELVAEISFTRSRAFYPDTVKGRFTISRDNAKNTLYLQMSSLKSEDTAMYYCARLGGNNYDYWYFDVWGTGTTVTVSS VL: DIVLTQSPTSLAVSLGQRATISCRASESVEYYGTSLMQWYQQKPGQRPKLLIYAASNVESGVPARFSGSGSGTDFSLNIHPVEEDDIAMYFCQQSWKVPFTFGSGTKLEIK
Result: ~6 ng/mL
